| compound | melting point |
| --- | --- |
| COc1cc(OC)c(Cl)c(-c2nn(C)c(=O)c(Cl)c2-c2ccc(F)cc2Cl)c1 [Compound 58] | 85 to 90 °C |
| COc1cc(OC)c(Cl)c(-c2nn(C)c(=O)c(C)c2-c2ccc(F)cc2Cl)c1 [Compound 66] | 140 to 143 °C |
| COc1ccc(Cl)c(-c2nn(C)c(=O)c(Cl)c2-c2c(F)cccc2F)c1 [Compound 57] | 134 to 137 °C |

---

// reported Test A disease control rating for each item listed
tested on: Zymoseptoria tritici; assay: Test A: test solution sprayed on wheat seedlings, inoculated next day with Zymoseptoria tritici (wheat leaf blotch); disease rating (100 = 100% disease control, 0 = no control; dash = not tested); assay type: in vivo; settings: 250 ppm

| compound | unit.descriptor | Test A disease control rating |
| --- | --- | --- |
| CCn1nc(-c2cc(OC)cc(OC)c2)c(-c2c(F)cccc2F)cc1=O | % | 0 |
| CCn1nc(-c2c(Cl)c(OC)cc(OC)c2Cl)c(-c2c(F)cccc2F)cc1=O | % | 2 |
| Cn1nc(-c2ccc(F)cc2Cl)c(-c2ccc(F)cc2Cl)c(CO)c1=O | % | 79 |
| COc1ccc(-c2nn(C)c(=O)cc2-c2c(F)cccc2F)c(F)c1 | % | 38 |
| CON(C)C(=O)c1c(-c2ccc(F)cc2Cl)c(-c2ccc(F)cc2Cl)nn(C)c1=O | % | 4 |
| COc1cc(F)cc(-c2nn(C)c(=O)cc2-c2c(F)cccc2F)c1 | % | 99 |
| CCn1nc(-c2cc(OC)cc(OC)c2)c(-c2ccc(F)cc2Cl)cc1=O | % | 12 |
| CCn1nc(-c2cc(OC)cc(OC)c2)c(-c2cc(OC)cc(OC)c2)cc1=O | % | 7 |
| Cn1nc(-c2ccccc2)c(-c2c(F)cccc2F)c(Cl)c1=O | % | 97 |
| CCn1nc(-c2ccc(F)cc2Cl)c(-c2ccc(F)cc2Cl)c(C#N)c1=O | % | 98 |
| CCOC(=O)c1c(-c2ccc(F)cc2Cl)c(-c2ccc(F)cc2Cl)nn(C)c1=O [Compound 153] | % | 0 |
| Cn1nc(-c2cc(F)ccc2Cl)c(-c2c(F)cccc2F)cc1=O | % | 100 |
| COc1cc(OC)cc(C2=NN(C)C(=O)CC2c2ccc(F)cc2Cl)c1 (stereo not drawn) | % | 51 |
| CCn1nc(-c2c(F)cccc2F)c(-c2c(F)cccc2F)cc1=O | % | 0 |
| Cn1nc(-c2ccccc2)c(-c2c(F)cccc2F)cc1=O | % | 72 |
| CCN1N=C(c2cc(OC)cc(OC)c2)C(c2ccc(F)cc2Cl)CC1=O (stereo not drawn) | % | 0 |
| CCn1nc(-c2ccc(F)cc2Cl)c(-c2ccc(F)cc2Cl)cc1=O | % | 2 |
| CCn1nc(-c2cc(OC)cc(OC)c2)c(-c2c(F)cccc2F)c(Cl)c1=O | % | 87 |

---

test system: Blumeria graminis f. sp. tritici; assay: Test C: test suspension sprayed on wheat seedlings, inoculated next day with Blumeria graminis f. sp. tritici (wheat powdery mildew); visual disease rating (100 = 100% disease control, 0 = no control; dash = not tested); assay type: in vivo; details: 50 ppm
// reported Test C disease control rating for each item listed

| record.smiles | Test C disease control rating / % |
| --- | --- |
| CCn1nc(-c2cc(OC)cc(OC)c2)c(-c2c(F)cccc2F)c(Br)c1=O | 13 |
| CCn1nc(-c2cc(OC)cc(OC)c2Cl)c(-c2c(F)cccc2F)c(Cl)c1=O | 99 |
| COCc1c(-c2ccc(F)cc2Cl)c(-c2ccc(F)cc2Cl)nn(C)c1=O | 98 |
| CCc1c(-c2c(F)cccc2F)c(-c2cc(OC)cc(F)c2Br)nn(C)c1=O | 100 |

---

system: Blumeria graminis f. sp. tritici; assay: Test C: test suspension sprayed on wheat seedlings, inoculated next day with Blumeria graminis f. sp. tritici (wheat powdery mildew); visual disease rating (100 = 100% disease control, 0 = no control; dash = not tested); assay type: in vivo; details: 50 ppm

| record.smiles | unit.descriptor | Test C disease control rating |
| --- | --- | --- |
| Cn1nc(-c2ccc(F)cc2Cl)c(-c2ccc(F)cc2Cl)c(CF)c1=O | % | 99 |
| COc1cc(F)cc(-c2nn(C)c(=O)c(Cl)c2-c2ccc(F)cc2Cl)c1Br | % | 100 |
| Cn1nc(-c2ccccc2Cl)c(-c2ccc(F)cc2Cl)c(Cl)c1=O | % | 99 |
| Cn1nc(-c2ccc(F)cc2Cl)c(-c2ccc(F)cc2Cl)c(CC#N)c1=O | % | 0 |

---

tested on: Blumeria graminis f. sp. tritici; assay: Test C: test suspension sprayed on wheat seedlings, inoculated next day with Blumeria graminis f. sp. tritici (wheat powdery mildew); visual disease rating (100 = 100% disease control, 0 = no control; dash = not tested); format: in vivo; conditions: 250 ppm

| compound | Test C disease control rating |
| --- | --- |
| COc1cc(OC)cc(-c2nn(C)c(=O)cc2-c2ccc(F)cc2Cl)c1 | 96% |
| COc1cccc(-c2nn(C)c(=O)cc2-c2c(F)cccc2F)c1Cl | 84% |
| CCn1nc(-c2ccc(F)cc2Cl)c(-c2ccc(F)cc2Cl)c(Cl)c1=O | 93% |
| CCOC(=O)c1c(-c2ccc(F)cc2Cl)c(-c2ccc(F)cc2Cl)nn(C)c1=O [Compound 143] | 100% |
| CON(C)C(=O)c1c(-c2ccc(F)cc2Cl)c(-c2ccc(F)cc2Cl)nn(C)c1=O | 0% |
| Cn1nc(-c2ccc(F)cc2Cl)c(-c2ccc(F)cc2Cl)c(CO)c1=O | 87% |
| COc1cc(F)cc(-c2nn(C)c(=O)cc2-c2c(F)cccc2F)c1 | 97% |

---

Test system: Blumeria graminis f. sp. tritici
Assay: Test C: test suspension sprayed on wheat seedlings, inoculated next day with Blumeria graminis f. sp. tritici (wheat powdery mildew); visual disease rating (100 = 100% disease control, 0 = no control; dash = not tested)
Format: in vivo
Details: 50 ppm
Method: The resulting test suspensions were then used in Tests A-F. The test suspension was sprayed to the point of run-off on wheat seedlings. The following day the seedlings were inoculated with a spore dust of Blumeria graminis f. sp. tritici, (also known as Erysiphe graminis f. sp. tritici, the causal agent of wheat powdery mildew) and incubated in a growth chamber at 20° C. for 8 days, after which time visual disease ratings were made. […]
// reported Test C disease control rating for each item listed
property.label: Test C disease control rating

| record.smiles | target.desc | property.label | measured.result |
| --- | --- | --- | --- |
| CCn1nc(-c2cc(OC)cc(OC)c2Cl)c(-c2ccc(F)cc2Cl)cc1=O | Blumeria graminis f. sp. tritici | Test C disease control rating | 72% |
| Cc1c(-c2ccc(F)cc2Cl)c(-c2cc(O)ccc2Cl)nn(C)c1=O | Blumeria graminis f. sp. tritici | Test C disease control rating | 100% |
| COc1cc(OC)c(F)c(-c2nn(C)c(=O)c(Cl)c2-c2ccc(F)cc2Cl)c1 | Blumeria graminis f. sp. tritici | Test C disease control rating | 100% |
| Cn1nc(-c2ccc(F)cc2Cl)c(-c2ccc(F)cc2Cl)c(CO)c1=O | Blumeria graminis f. sp. tritici | Test C disease control rating | 72% |
| CCn1nc(-c2cc(OC)cc(OC)c2Cl)c(-c2c(F)cccc2F)c(C)c1=O | Blumeria graminis f. sp. tritici | Test C disease control rating | 98% |
| COc1ccc(Cl)c(-c2nn(C)c(=O)c(Cl)c2-c2ccccc2F)c1 | Blumeria graminis f. sp. tritici | Test C disease control rating | 96% |

---

system: Blumeria graminis f. sp. tritici; experiment: Test C: test suspension sprayed on wheat seedlings, inoculated next day with Blumeria graminis f. sp. tritici (wheat powdery mildew); visual disease rating (100 = 100% disease control, 0 = no control; dash = not tested); format: in vivo; details: 50 ppm

| record.smiles | Test C disease control rating |
| --- | --- |
| Cn1nc(-c2cc(C#N)ccc2Cl)c(-c2ccc(F)cc2Cl)c(Cl)c1=O | 98% |
| COc1c(-c2ccc(F)cc2Cl)c(-c2cccc(F)c2Br)nn(C)c1=O | 100% |
| CCCc1c(-c2ccc(F)cc2Cl)c(-c2cc(OC)ccc2Cl)nn(C)c1=O | 97% |
| CCc1c(-c2ccc(F)cc2Cl)c(-c2ccc(F)cc2Cl)nn(C)c1=O | 100% |
| COc1ccc(Cl)c(-c2nn(C)c(=O)c(Br)c2-c2c(F)cccc2F)c1 | 100% |
| CCn1nc(-c2cc(OC)cc(OC)c2Br)c(-c2c(F)cccc2F)c(OC)c1=O | 98% |
